Values were extracted from patent US20210253572A1.

target: TrkC (Homo sapiens); experiment: HTRF KinEASE kinase assay, recombinant Human TRK enzyme, TrkC (NTRK3); settings: NTRK3 10 nM, read-out: TrkC Enz
Sequence (Q16288 32-839): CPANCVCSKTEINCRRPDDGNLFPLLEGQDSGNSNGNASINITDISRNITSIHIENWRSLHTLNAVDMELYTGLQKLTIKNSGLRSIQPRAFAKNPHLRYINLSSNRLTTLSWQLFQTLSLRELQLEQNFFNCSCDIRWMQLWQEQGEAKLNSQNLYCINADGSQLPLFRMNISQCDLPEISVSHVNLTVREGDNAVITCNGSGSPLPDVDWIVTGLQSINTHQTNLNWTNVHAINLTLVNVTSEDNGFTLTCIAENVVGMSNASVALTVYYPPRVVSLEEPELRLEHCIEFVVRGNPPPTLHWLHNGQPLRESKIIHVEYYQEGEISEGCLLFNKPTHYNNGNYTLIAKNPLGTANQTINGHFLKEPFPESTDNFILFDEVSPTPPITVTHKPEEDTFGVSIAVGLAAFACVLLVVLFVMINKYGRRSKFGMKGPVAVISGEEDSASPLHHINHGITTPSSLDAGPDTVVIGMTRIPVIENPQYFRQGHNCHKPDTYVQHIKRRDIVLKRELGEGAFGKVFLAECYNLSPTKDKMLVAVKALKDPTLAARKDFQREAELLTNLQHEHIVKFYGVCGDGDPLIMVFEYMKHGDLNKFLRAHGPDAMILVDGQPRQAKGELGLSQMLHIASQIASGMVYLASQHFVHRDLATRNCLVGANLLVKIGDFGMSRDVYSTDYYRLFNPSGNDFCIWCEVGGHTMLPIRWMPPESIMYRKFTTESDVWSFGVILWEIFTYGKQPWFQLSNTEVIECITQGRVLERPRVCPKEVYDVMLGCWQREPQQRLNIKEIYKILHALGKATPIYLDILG
measurement-name: pIC50
When answering, recall that pIC50 equals minus log10 of the concentration in mol/L, and write that number alone.

Guide cases for pIC50, answers given:
[[record]]
smiles_representation = "CCCCOC(=O)c1cccc(CN2CC[C@H](NC(=O)c3cnc4ccc(N5C[C@@H](F)C[C@@H]5c5cc(F)cc(SC)c5)nn34)C2)c1"
result = 7.65

[[record]]
smiles_representation = "CSc1ccc(F)cc1[C@H]1CCCN1c1ccc2ncc(C(=O)NC3CN(Cc4ccc(F)c(O)c4)C3)n2n1"
result = 8.55

[[record]]
smiles_representation = "CCOC(=O)c1cccc(CN2CC[C@H](NC(=O)c3cnc4ccc(N5C[C@@H](F)C[C@@H]5c5cc(F)ccc5SC)nn34)C2)c1"
result = 8.70

[[record]]
smiles_representation = "CCCCOC(=O)c1cccc(CN2CC[C@H](NC(=O)c3cnc4ccc(N5C[C@@H](F)C[C@@H]5c5cc(F)ccc5SC)nn34)C2)c1"
result = 7.96


Now examine the next entry.
// lookup pIC50 for CSc1ccc(F)cc1[C@H]1C[C@H](F)CN1c1ccc2ncc(C(=O)N[C@H]3CCN(Cc4cccc(O)c4)C3)n2n1
8.79
